Hey, just so you know, these numbers are from paper PMC4229301.

assay_info: Pharmacokinetics study after i.v. injection in rats
Type: in vivo, Wistar rats
condition_summary: male, Wistar, rat, plasma, iv, 20 mg/kg
outcome_measure: AUC(0-t) (ng·h/mL)
Report as a plain number; the unit ng·h/mL is understood.

Q: For the compound O=C(O)Cn1cc(F)c(=O)[nH]c1=O , give its reported AUC(0-t).
A: 21400

---

assay_info: Pharmacokinetics study after i.v. injection in rats
Type: in vivo, Wistar rats
condition_summary: male, Wistar, rat, plasma, iv, 20 mg/kg
outcome_measure: Cmax
Lab note: write values as number then unit, every time.

Q: Given O=C(O)Cn1cc(F)c(=O)[nH]c1=O , respond with its Cmax.
A: 74.9 µg/mL

---

assay_info: Pharmacokinetics study after i.v. injection in rats
Type: in vivo, Wistar rats
condition_summary: male, Wistar, rat, plasma, iv; rats, i.v. 20 mg/kg 5-FA; 30 min
outcome_measure: concentration at 30 min (µg/mL)
Lab book: enter the figure in µg/mL, no units written.

Q: Identify concentration at 30 min associated with the compound O=C(O)Cn1cc(F)c(=O)[nH]c1=O
A: 79.9

---

assay_info: Pharmacokinetics study after i.v. injection in rats
Format: in vivo, Wistar rats
condition_summary: male, Wistar, rat, plasma, iv; rats, i.v. 20 mg/kg 5-FA; 1 h
outcome_measure: concentration at 1 h (µg/mL)
Entry rule: numbers only, all in µg/mL.

Q: Provide one value: measured concentration at 1 h of O=C(O)Cn1cc(F)c(=O)[nH]c1=O [5-FA, 5-fluorouracil-1-acetic acid]
A: 79.9

---

assay_info: In vivo distribution in H22 tumor-bearing mice
Parameters: species or system Kunming mice
condition_summary: Kunming, mouse, tumor/plasma, iv, 20 mg/kg; H22 tumor-bearing mice, i.v., 4 h after injection; read-out: ratio of tumor/plasma concentration
Protocol: The tumor-bearing animal model was established by subcutaneous injection of H22 cells (1×10^7 cells/ml, in 0.2 ml saline) into the right axillary region of Kunming mice. The sizes of tumors were monitored 7 days after inoculation and the tumor volumes were calculated as described in the “Antitumor activity in tumor-bearing mice” section. The mice with tumor volumes between 0.35 cm^3 and 0.65 cm^3 were randomized into two groups (n = 30). […]
outcome_measure: Kp at 4 h
Give the figure by itself; no unit, no explanation.

Q: Supply measured Kp at 4 h of O=C(O)Cn1cc(F)c(=O)[nH]c1=O in your reply.
A: 1.99

---

assay_info: Pharmacokinetics study after i.v. injection in rats
Assay type: in vivo, Wistar rats
condition_summary: male, Wistar, rat, plasma, iv, 20 mg/kg; read-out: MRT 0-∞
outcome_measure: MRT inf (min)
All answers are understood in min, so give the number only.

Q: // fetch MRT inf given entry O=C(O)Cn1cc(F)c(=O)[nH]c1=O
A: 47.7

---

assay_info: Pharmacokinetics study after i.v. injection in rats
Type: in vivo, Wistar rats
condition_summary: male, Wistar, rat, plasma, iv, 20 mg/kg; read-out: MRT 0-t
outcome_measure: MRT last
Dear colleague, please send the value followed by its unit.

Q: Quick one: give measured MRT last for O=C(O)Cn1cc(F)c(=O)[nH]c1=O [5-FA, 5-fluorouracil-1-acetic acid]
A: 40.7 min

---

assay_info: Pharmacokinetics study after i.v. injection in rats
Assay type: in vivo, Wistar rats
condition_summary: male, Wistar, rat, plasma, iv, 20 mg/kg
outcome_measure: AUC(0-inf) (ng·h/mL)
Just the number please, in ng·h/mL, no unit attached.

Q: Indicate the recorded AUC(0-inf) value for this compound: O=C(O)Cn1cc(F)c(=O)[nH]c1=O
A: 21600
